- TESTED SYSTEM: Histone-lysine N-methyltransferase NSD3 (Homo sapiens) (UniProt Q9BZ95)
- Sequence (Q9BZ95 whole entry): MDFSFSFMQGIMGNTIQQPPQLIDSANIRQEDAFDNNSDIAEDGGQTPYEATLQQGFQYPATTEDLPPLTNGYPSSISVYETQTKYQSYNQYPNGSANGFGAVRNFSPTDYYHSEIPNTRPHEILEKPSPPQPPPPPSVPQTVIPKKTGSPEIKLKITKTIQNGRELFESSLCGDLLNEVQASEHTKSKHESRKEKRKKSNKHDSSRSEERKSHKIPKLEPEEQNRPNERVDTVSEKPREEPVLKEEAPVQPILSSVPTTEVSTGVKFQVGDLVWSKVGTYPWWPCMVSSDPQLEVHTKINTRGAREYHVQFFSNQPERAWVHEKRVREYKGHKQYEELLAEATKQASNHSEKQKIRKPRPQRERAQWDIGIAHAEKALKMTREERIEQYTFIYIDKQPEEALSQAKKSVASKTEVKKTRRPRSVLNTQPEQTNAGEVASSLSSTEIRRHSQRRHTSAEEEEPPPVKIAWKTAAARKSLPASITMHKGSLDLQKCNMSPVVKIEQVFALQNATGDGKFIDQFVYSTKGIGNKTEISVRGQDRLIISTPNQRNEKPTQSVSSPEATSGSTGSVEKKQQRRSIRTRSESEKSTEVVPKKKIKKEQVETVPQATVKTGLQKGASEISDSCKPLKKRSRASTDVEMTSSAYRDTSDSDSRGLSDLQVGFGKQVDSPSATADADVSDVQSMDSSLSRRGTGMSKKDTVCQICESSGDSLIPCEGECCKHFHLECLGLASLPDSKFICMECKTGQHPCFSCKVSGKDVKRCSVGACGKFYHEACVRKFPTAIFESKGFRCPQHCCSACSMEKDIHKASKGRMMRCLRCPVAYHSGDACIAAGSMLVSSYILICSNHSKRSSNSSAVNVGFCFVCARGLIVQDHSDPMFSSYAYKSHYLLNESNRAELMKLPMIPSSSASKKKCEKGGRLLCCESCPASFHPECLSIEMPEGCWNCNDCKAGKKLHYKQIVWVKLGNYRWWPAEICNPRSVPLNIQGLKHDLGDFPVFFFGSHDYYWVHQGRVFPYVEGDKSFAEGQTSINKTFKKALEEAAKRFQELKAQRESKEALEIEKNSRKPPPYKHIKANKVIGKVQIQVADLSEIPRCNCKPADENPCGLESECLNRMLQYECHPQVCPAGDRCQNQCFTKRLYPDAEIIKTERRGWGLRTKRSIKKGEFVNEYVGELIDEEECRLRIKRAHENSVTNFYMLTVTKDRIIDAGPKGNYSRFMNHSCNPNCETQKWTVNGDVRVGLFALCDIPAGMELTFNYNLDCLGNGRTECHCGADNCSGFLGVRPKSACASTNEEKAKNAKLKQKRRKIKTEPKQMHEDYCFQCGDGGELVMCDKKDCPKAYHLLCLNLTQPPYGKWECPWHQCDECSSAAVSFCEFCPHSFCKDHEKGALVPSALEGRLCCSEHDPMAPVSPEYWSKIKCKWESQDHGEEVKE
- EXPERIMENTAL PROTOCOL: Induction of NSD3 degradation in human NCI-H1703 cells at 5 uM incubated for 72 hrs by Western blot analysis
- Assay type: cell-based
MEASUREMENT NAME: NSD3 degradation (%)
A number alone suffices; assume %.

Reference set (4 entries):
Cc1cc(CNCCCCCCCC(=O)N[C@H](C(=O)N2C[C@H](O)C[C@H]2C(=O)N[C@@H](C)c2ccc(-c3scnc3C)cc2)C(C)(C)C)cc(C)c1-c1ncn(C)c1-c1ccnc2cc(F)ccc12
-2.4
Cc1cc(CNCCN2CCN(CCCC(=O)N[C@H](C(=O)N3C[C@H](O)C[C@H]3C(=O)N[C@@H](C)c3ccc(-c4scnc4C)cc3)C(C)(C)C)CC2)cc(C)c1-c1ncn(C)c1-c1ccnc2cc(F)ccc12
9.1
Cc1cc(CNCCCCN2CCN(CC(=O)N[C@H](C(=O)N3C[C@H](O)C[C@H]3C(=O)N[C@@H](C)c3ccc(-c4scnc4C)cc3)C(C)(C)C)CC2)cc(C)c1-c1ncn(C)c1-c1ccnc2cc(F)ccc12
11.1
Cc1cc(CNCCCCCCCCC(=O)N[C@H](C(=O)N2C[C@H](O)C[C@H]2C(=O)N[C@@H](C)c2ccc(-c3scnc3C)cc2)C(C)(C)C)cc(C)c1-c1ncn(C)c1-c1ccnc2cc(F)ccc12
0.7

Need NSD3 degradation of Cc1cc(CNCCCCCCCCCCNc2cccc3c2C(=O)N(C2CCC(=O)NC2=O)C3=O)cc(C)c1-c1ncn(C)c1-c1ccnc2cc(F)ccc12 (stereo not given) , thanks.
21

---

- TESTED SYSTEM: Histone-lysine N-methyltransferase NSD3 (Homo sapiens)
- Sequence (Q9BZ95 whole entry): as above
- EXPERIMENTAL PROTOCOL: Induction of NSD3 degradation in human NCI-H1703 cells incubated for 72 hrs by Western blot analysis
- Type: cell-based
MEASUREMENT NAME: EC50

Need EC50 of Cc1cc(CNCCCCCCCCCCC(=O)N[C@H](C(=O)N2C[C@H](O)C[C@H]2C(=O)N[C@@H](C)c2ccc(-c3scnc3C)cc2)C(C)(C)C)cc(C)c1-c1ncn(C)c1-c1ccnc2cc(F)ccc12 , thanks.
1.43 µM

---

- TESTED SYSTEM: Histone-lysine N-methyltransferase NSD3 (Homo sapiens)
- EXPERIMENTAL PROTOCOL: Induction of NSD3 degradation in human NCI-H1703 cells at 5 uM incubated for 72 hrs by Western blot analysis
- Assay type: cell-based
MEASUREMENT NAME: NSD3 degradation (%)
A number alone suffices; assume %.

Reference set (6 entries):
Cc1cc(CNCCOCCOCCC(=O)N[C@H](C(=O)N2C[C@H](O)C[C@H]2C(=O)N[C@@H](C)c2ccc(-c3scnc3C)cc2)C(C)(C)C)cc(C)c1-c1ncn(C)c1-c1ccnc2cc(F)ccc12
-7.2
Cc1cc(CNCCCCCCCCCCCCNc2cccc3c2C(=O)N(C2CCC(=O)NC2=O)C3=O)cc(C)c1-c1ncn(C)c1-c1ccnc2cc(F)ccc12 (stereo not given)
1.5
Cc1cc(CNCCCCCCN2CCN(CC(=O)N[C@H](C(=O)N3C[C@H](O)C[C@H]3C(=O)N[C@@H](C)c3ccc(-c4scnc4C)cc3)C(C)(C)C)CC2)cc(C)c1-c1ncn(C)c1-c1ccnc2cc(F)ccc12
37.6
Cc1cc(CNCCOCCOCCOCCOCCC(=O)N[C@H](C(=O)N2C[C@H](O)C[C@H]2C(=O)N[C@@H](C)c2ccc(-c3scnc3C)cc2)C(C)(C)C)cc(C)c1-c1ncn(C)c1-c1ccnc2cc(F)ccc12
7.7
Cc1cc(CNCCCCCCCCCCCCCC(=O)N[C@H](C(=O)N2C[C@H](O)C[C@H]2C(=O)N[C@@H](C)c2ccc(-c3scnc3C)cc2)C(C)(C)C)cc(C)c1-c1ncn(C)c1-c1ccnc2cc(F)ccc12
45.2
Cc1cc(CNCCCN2CCN(CCC(=O)N[C@H](C(=O)N3C[C@H](O)C[C@H]3C(=O)N[C@@H](C)c3ccc(-c4scnc4C)cc3)C(C)(C)C)CC2)cc(C)c1-c1ncn(C)c1-c1ccnc2cc(F)ccc12
25.8

Provide the documented NSD3 degradation with Histone-lysine N-methyltransferase NSD3 (Homo sapiens) as the system for Cc1cc(CNCCCCCCCCCC(=O)N[C@H](C(=O)N2C[C@H](O)C[C@H]2C(=O)N[C@@H](C)c2ccc(-c3scnc3C)cc2)C(C)(C)C)cc(C)c1-c1ncn(C)c1-c1ccnc2cc(F)ccc12
1.2

Consider next the molecule Cc1cc(CNCCCCCCCCCCC(=O)N[C@H](C(=O)N2C[C@H](O)C[C@H]2C(=O)N[C@@H](C)c2ccc(-c3scnc3C)cc2)C(C)(C)C)cc(C)c1-c1ncn(C)c1-c1ccnc2cc(F)ccc12 in the same way.
58.9

Consider next the molecule Cc1cc(CNCCCCCCCCCCCCCCC(=O)N[C@H](C(=O)N2C[C@H](O)C[C@H]2C(=O)N[C@@H](C)c2ccc(-c3scnc3C)cc2)C(C)(C)C)cc(C)c1-c1ncn(C)c1-c1ccnc2cc(F)ccc12 in the same way.
33.1

Consider next the molecule Cc1cc(CNCCCCCC(=O)N[C@H](C(=O)N2C[C@H](O)C[C@H]2C(=O)N[C@@H](C)c2ccc(-c3scnc3C)cc2)C(C)(C)C)cc(C)c1-c1ncn(C)c1-c1ccnc2cc(F)ccc12 in the same way.
1.6
